TGT: thrombin (Homo sapiens)
MEASUREMENT_PROTOCOL: anti-thrombin activity; clotting assay (coagulation time with fibrinogen as substrate)
Assay type: biochemical
Set-up: 100 μl of human-thrombin prepared at 10 NIH units/ml in aforesaid buffer
MEASUREMENT_CONDITIONS: concentration corresponding to 50 thrombin units; human-thrombin 10 NIH units/ml, human-fibrinogen 6 mg/ml; read-out: 50% Inhibition Concentration (converted)
*1 amine or outer side, *2 acyl side, *3 side chain or, on linkers, in order; H or OH if unused. Where a SMILES comes first, the peptide text is derived from it. [ ]: non-standard residue; d: D form. sY = N[C@@H](Cc1ccc(OS(=O)(=O)O)cc1)C(=O)O; Suc = O=C(CCC(=O)[*:2])[*:1]
PROPERTY_NAME: IC50 (µM)
Kindly provide the numeric value in µM only, without the unit symbol.

-- ask Quick one: IC50 for CC[C@H](C)[C@H](NC(=O)[C@@H]1CCCN1C(=O)[C@H](CCC(=O)O)NC(=O)[C@H](Cc1ccccc1)NC(=O)CCC(=O)O)C(=O)N1CCC[C@H]1C(=O)N[C@@H](CCC(=O)O)C(=O)N[C@@H](Cc1ccc(OS(=O)(=O)O)cc1)C(=O)N[C@@H](Cc1ccc(OS(=O)(=O)O)cc1)C(=O)N[C@@H](CC(C)C)C(=O)N[C@@H](CCC(N)=O)C(=O)O [Sulfated form of (G)] (Suc-FEPIPE[sY][sY]LQ-OH) ?
-- reply 0.0389

-- ask Can you check CC[C@H](C)[C@H](NC(=O)[C@@H]1CCCN1C(=O)[C@H](CCC(=O)O)NC(=O)[C@H](Cc1ccccc1)NC(=O)CCC(=O)O)C(=O)N1CCC[C@H]1C(=O)N[C@@H](CCC(=O)O)C(=O)N[C@@H](Cc1ccc(O)cc1)C(=O)N[C@@H](Cc1ccc(O)cc1)C(=O)O [(I)] (Suc-FEPIPEYY-OH) next?
-- reply 17.3

-- ask Can you check CC[C@H](C)[C@H](NC(=O)[C@@H]1CCCN1C(=O)[C@H](CCC(=O)O)NC(=O)[C@H](Cc1ccccc1)NC(=O)[C@H](CC(=O)O)NC(=O)CNC(=O)CCC(=O)O)C(=O)N1CCC[C@H]1C(=O)N[C@@H](CCC(=O)O)C(=O)N[C@@H](Cc1ccc(OS(=O)(=O)O)cc1)C(=O)N[C@@H](Cc1ccc(OS(=O)(=O)O)cc1)C(=O)N[C@@H](CC(C)C)C(=O)N[C@@H](CCC(N)=O)C(N)=O [Sulfated form of (D)] (Suc-GDFEPIPE[sY][sY]LQ-NH2) next?
-- reply 0.0669
